FYI, the data here is from patent US20250346679A1.

TARGET_OR_SYSTEM: T1, hCD137-mFc-Avi (human; mouse, UniProt Q07011 24-186, biotin on the Avi sequence where the biotinylated form was used)
T1 construct: also called human CD137-mFc-Avi; dimeric human CD137; not shown: mouse IgG2a Fc domain (mIgG2a Fc)
T1 sequence (Q07011 24-186): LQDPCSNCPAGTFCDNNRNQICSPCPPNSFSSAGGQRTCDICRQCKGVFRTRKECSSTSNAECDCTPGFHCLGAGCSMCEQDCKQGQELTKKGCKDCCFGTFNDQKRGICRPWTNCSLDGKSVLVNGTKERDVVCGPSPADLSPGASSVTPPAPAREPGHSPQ
EXPERIMENT_NOTES: flow cytometry of yeast clones with 10 nM dimeric human antigen

BINDER: FS22-172-002 Fcab clone displayed on yeast (designed binder) GQPREPQVYTLPPSRDELPFQMPPYNQVSLTCLVKGFYPSDIAVEWESNGQPENNYKTTPPVLDSDGSFFLYSKLTVGADRWLEGNVFSCSVMHEALHNHYTQKSLSLSPG
% APC positive cells: > 10%
--
BINDER: FS22-172-004 Fcab clone displayed on yeast (designed binder) GQPREPQVYTLPPSRDELNYIYPPYNQVSLTCLVKGFYPSDIAVEWESNGQPENNYKTTPPVLDSDGSFFLYSKLTVGADRWLEGNVFSCSVMHEALHNHYTQKSLSLSPG
% APC positive cells: > 10%
--
BINDER: FS22-172-005 Fcab clone displayed on yeast (designed binder) GQPREPQVYTLPPSRDELQQVYPPYNQVSLTCLVKGFYPSDIAVEWESNGQPENNYKTTPPVLDSDGSFFLYSKLTVGADRWLEGNVFSCSVMHEALHNHYTQKSLSLSPG
% APC positive cells: > 10%
--
BINDER: FS22-053-009 Fcab clone displayed on yeast (designed binder, yeast display clone, FS22-053 EF library) GQPREPQVYTLPPSRDELNPPYLFSNQVSLTCLVKGFYPSDIAVEWESNGQPENNYKTTPPVLDSDGSFFLYSKLTVEHTRWLDGNVFSCSVMHEALHNHYTQKSLSLSPG
% APC positive cells: > 30%
